Tested on: MDA-MB-435
Assay: NCI tumour cell line growth inhibition, 48 h
Values of TGI greater than or equal to 7 µM map to satisfied; values below map to not satisfied.

Examples from the recorded data:
COMPOUND	ASSIGNED_CLASS
O=C1NC(c2ccc3ccccc3c2)Nc2ccccc21 (centres undefined)	satisfied
CCCCCCCCCCCCCCCC(=O)NS(=O)(=O)OC[C@H]1O[C@@H](n2cnc3c(N)ncnc32)[C@H](O)[C@@H]1O	not satisfied
Cc1cn(C2CC(O)C(Cn3nncc3Cn3cnc4c(N)ncnc43)O2)c(=O)[nH]c1=O (centres undefined)	satisfied
CCOC(=O)c1sc2nc(SC)nc3c2c1NC(=O)CN3c1ccc(F)cc1	satisfied
CC(C)C[C@H](NC(=O)[C@@H](Cc1ccccc1)n1ccc(Nc2ccccc2)cc1=O)B(O)O	not satisfied
NS(=O)(=O)c1ccc(N=Nc2c(O)[nH]c3ccc(C(=O)NCCCn4ccnc4)cc23)cc1	satisfied
COc1ccc2nc3cc([N+](=O)[O-])ccc3c(NCCO)c2c1	not satisfied
CC(=O)NC1C(OCc2ccccc2)OC(CO)C(O)C1OCC(=O)NC(C(=O)NC(CCC(=O)NCCCCCC(=O)Nc1ccc2c(c1)CN1C(=O)c3ccccc3C1=N2)C(N)=O)C(C)C (centres undefined)	satisfied

stdin: Dear colleague, could you confirm whether CN(C)c1n2c3ccc([N+](=O)[O-])cc3n3c(N(C)C)[n+]4ccccc4c3c2c2cccc[n+]12 has TGI at or above 7 µM?
stdout: satisfied

stdin: Dear colleague, could you confirm whether CCCCC(CC)C(=O)Oc1ccc(C(=O)c2ccccc2)c(O)c1 (centres undefined) has TGI at or above 7 µM?
stdout: satisfied

stdin: Dear colleague, could you confirm whether C=C1N(C)c2ccc(S(=O)(=O)c3ccc4c(c3)C(C)(C)C(=C)N4C)cc2C1(C)C has TGI at or above 7 µM?
stdout: satisfied

stdin: Dear colleague, could you confirm whether NC1=NC(c2ccc(Cl)cc2)=CC(c2cccc(Cl)c2)S1 (centres undefined) has TGI at or above 7 µM?
stdout: satisfied

stdin: Dear colleague, could you confirm whether O=c1[nH][nH]c(=O)n1Cc1ccccc1 has TGI at or above 7 µM?
stdout: satisfied

stdin: Dear colleague, could you confirm whether CCOC(=O)/C=C(/C(=O)OCC)n1ccc(=O)n(Cc2cn(CCCCOC(C)=O)nn2)c1=O has TGI at or above 7 µM?
stdout: satisfied

====

Property: TGI; scope: individual compounds
Test system: M14 melanoma
Assay: NCI tumour cell line growth inhibition, 48 h

# example entries with known answers
>>> df
                                   compound  target_system  value_measured
0  O=C(O)C12C3CCC(C3)C1(C(=O)O)C1CCC2C1 (stereo not given)   M14 melanoma        > 100 µM
1  COc1ccc(S(=O)(=O)N/N=C(\C)CN2C(=O)c3ccccc3C2=O)cc1OC   M14 melanoma        > 100 µM
2  CC(=O)OC(COc1ccc2c(c1)[n+]([O-])nc(N)[n+]2[O-])CN1CCCCC1 (stereo not given)   M14 melanoma         38.7 µM
3                     c1ccc2c(c1)nc1ccccn12   M14 melanoma        > 100 µM
4        O=C(O)c1ccc(CSc2nc3ccccc3[nH]2)cc1   M14 melanoma        > 100 µM

Entry C[n+]1cccc(NC(=O)c2ccc3ccc4ccc(C(=O)Nc5ccc[n+](C)c5)nc4c3n2)c1 , M14 melanoma data, TGI value: > 100 µM

Entry CCCCCOC(=O)Nc1nc(=O)n(C2OC(C)C(O)C2O)cc1F (stereo not given) , M14 melanoma data, TGI value: > 10000 µM
